- System: MOLT-4 leukemia
- PROTOCOL DESCRIPTION: NCI tumour cell line growth inhibition, 48 h; in the data active = GI50 below about 0.43 µM; inactive = the rest
Where a SMILES comes first, the peptide text is derived from it. The star is where a group is joined. Boc = CC(C)(C)OC(=O)*
Possible outcomes: yes (1) (active), no (0) (inactive)

COMPOUND: COc1ccc(-c2cc(/C=C/C(=O)c3ccc(OC)c(OC)c3)[nH]n2)cc1
LABEL: no (0)
--
COMPOUND: CCc1ccc(/C=C/c2ccc(O)c3ncccc23)[n+](C)c1
LABEL: no (0)
--
COMPOUND: CCOC(=O)c1c(-c2ccc(OC)cc2)c(C#N)c2c(C#N)c(N)nn2c1N
LABEL: no (0)
--
COMPOUND: COC(=O)C(C)NC(=O)C(CCSC)NC(=O)C(Cc1ccccc1)NC(=O)OC(C)(C)C (stereo not drawn) (Boc-Phe-Met-Ala-OMe; configuration not given here)
LABEL: no (0)
--
COMPOUND: CC1CCN(C(=O)OCc2nc3nc(Cl)nc(N4CCOCC4)c3[nH]2)CC1
LABEL: no (0)
--
COMPOUND: COc1ccc(C(O)(CCC(C)C)C(CN2CCOCC2)c2ccc(Cl)cc2)cc1 (centres undefined)
LABEL: no (0)
--
COMPOUND: C#Cc1nc(Nc2cc(C)[nH]n2)c2ccccc2n1
LABEL: yes (1)
--
COMPOUND: O=C(NNc1ccccc1)C(=O)NNc1ccccc1
LABEL: no (0)
--
COMPOUND: CSc1nc(NC2OC(COC(C)=O)C(OC(C)=O)C(OC(C)=O)C2OC(C)=O)c(N=CC=Nc2c(NC3OC(COC(C)=O)C(OC(C)=O)C(OC(C)=O)C3OC(C)=O)nc(SC)n(C)c2=O)c(=O)n1C (centres undefined)
LABEL: no (0)
